Biological target: T1, baboon EL (baboon)
T1 construct: Heparin extract
Assay: ELISA: antibody captured on anti-mouse IgG-Fc plate, EL heparin extract added, detection with biotin anti-C2-tag antibody and HRP-streptavidin, A450
Experimental: Assay buffer containing 15 μl of anti-EL antibody was added to anti-mouse IgG-Fc antibody-immobilized microtiter plate, and incubated for 2 hr. […] After washing the wells three times with 90 μL of washing buffer, 15 μL of TMB+—Substrate—Chromogen (DAKO) was added and incubated at room temperature for 30 min and then 15 μL of 0.05 M H2SO₄ was added and absorbance at 450 nm was measured (FIG. 3A to 3K).
Reported EC50 (read off the curve) values are given for each entry in this list.

Please review the following examples before continuing.
{"BINDER": "16B3 (antibody, mouse IgG2a, V domains shown, mouse IgG2a from hybridoma; also called 16B3 (mouse mAb)) VH: DVKLVESGGGLVQPGGSLKLSCTASGFTFSGYTMSWVRQTPEKRLELVAEISFARDRAFYPDTVKGRFTISRDNAKNTLYLQMSSLKSEDTAMYYCTRLGGRNHDYWYFDVWGTGTTVTVSS VL: DIVLTQSPTSLAVSPGQRATISCRASESVEYYGTSLMQWYQQKPGQRPQLLIYAASNVESGVPARFSGSGSGTDFSLNIHPVEEDDIAVYFCQQSWKVPFTFGSGTKLEIK", "MEASURED_ENDPOINT": "EC50 (read off the curve)", "TEST_RESULT": "~5 ng/mL"}
{"BINDER": "14E1 (antibody, mouse IgG1, V domains shown, mouse IgG1 from hybridoma) VH: QVQLQQSGAELVKPGASVRLSCKASGYTFTKYTIHWVKQRSGQGLEWIGWFYPGSDSIKYNEKFKDKATLTADKSSRTVYMELSRLTSEDSAVYFCARHEEYTNSLAYWGQGTLVTVSA VL: DIQMTQTTSSLSASLGDRVTISCRASQDISNYLNWYQQQPDGTVKLLIYYTSRLHSGVPSRFSGSGSGTDYSLTISNLEQEDIATYFCQQGYTLPWTFGGGTNLEIK", "MEASURED_ENDPOINT": "EC50 (read off the curve)", "TEST_RESULT": "~20 ng/mL"}

Let us examine a further case.
Entry 55A1 (antibody, mouse IgG2a, V domains shown, mouse IgG2a from hybridoma; also called 55A1 (mouse mAb)) VH: QIHLVQSGPELKKPGETVKISCKASGYTFTNYGMNWVKQAPGKGLKWMGWINTYSGVPTYAGDFKGRFAFSLETSASTAYLQINNLKNEDTATYFCARRGYYGRRYFDVWGTGTTVTVSS VL: DIVLTQSPASLAVSLGQRATISCKASQSVDYDVDSYMHWYQQKPGQPPKLLIYAASNLASGIPARFSGGGSGTDFTLNIHPVEEEDVATYYCQQTIEDPPTFGGGTKLEIK , EC50 (read off the curve) reported as ~10 ng/mL
